# TEST TARGET: UniProt P20813
# Sequence (P20813 1-491): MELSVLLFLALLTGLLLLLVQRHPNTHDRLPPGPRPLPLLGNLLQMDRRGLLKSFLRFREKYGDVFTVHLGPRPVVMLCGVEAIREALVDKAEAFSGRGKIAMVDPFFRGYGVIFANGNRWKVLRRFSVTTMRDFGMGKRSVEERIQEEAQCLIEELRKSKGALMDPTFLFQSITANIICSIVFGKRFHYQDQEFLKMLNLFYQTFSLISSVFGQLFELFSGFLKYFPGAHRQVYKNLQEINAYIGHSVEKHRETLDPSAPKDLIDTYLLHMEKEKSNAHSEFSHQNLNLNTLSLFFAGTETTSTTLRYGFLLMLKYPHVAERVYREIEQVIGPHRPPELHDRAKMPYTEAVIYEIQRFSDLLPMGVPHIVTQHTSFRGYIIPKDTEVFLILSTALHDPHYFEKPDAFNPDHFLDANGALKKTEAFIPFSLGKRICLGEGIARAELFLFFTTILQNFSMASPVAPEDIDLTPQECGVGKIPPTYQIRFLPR
RECORDED METRIC: IC50 (nM)
The figure you give is taken to be in nM; do not add the unit.

Exercise: Report IC50 for COC(=O)[C@H](c1ccccc1Cl)N1CCc2sccc2C1 [clopidogrel] please.
Solution: 370
